molecular target: CaHof1; experiment: SPOT peptide array binding signal intensity (averaged, normalized) (arbitrary units (background-subtracted, floor 0; scale differs between SH3 domains)); higher = stronger binding of the SH3 domain to the peptide
Reported SPOT peptide array binding signal intensity values for a set of binders
Measure Name: SPOT peptide array binding signal intensity

>  <Binder>
APERAVPILPPRNNV

>  <Qualifying Sign>
=

>  <Readout Value>
3.5

$$$$
>  <Binder>
WRPRIVPILPYITRL

>  <Qualifying Sign>
=

>  <Readout Value>
2

$$$$
>  <Binder>
FYHRPAPKPPVTKKV

>  <Qualifying Sign>
≤

>  <Readout Value>
0

$$$$
>  <Binder>
DTIDNVKSKIQDKEG

>  <Qualifying Sign>
≤

>  <Readout Value>
0

$$$$
>  <Binder>
NSMRPPLLIPAATTK

>  <Qualifying Sign>
=

>  <Readout Value>
0.5

$$$$
>  <Binder>
MKRSRPSRSIPYTTP

>  <Qualifying Sign>
≤

>  <Readout Value>
0

$$$$
>  <Binder>
DDEDVPPQLPTRTKS

>  <Qualifying Sign>
=

>  <Readout Value>
7.5

$$$$

Values were extracted from the supplement of paper PMC4466140.
